Molecular target: T1, human DAXX four-helix bundle domain (4HB, residues 50–144) (human, UniProt Q9UER7 50-144)
T1 chain: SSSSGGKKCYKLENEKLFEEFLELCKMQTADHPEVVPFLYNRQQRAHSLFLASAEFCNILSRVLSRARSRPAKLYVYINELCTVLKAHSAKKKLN
Test: ITC
resultType: pKd
Recall that pKd is obtained by taking minus log10 of the concentration measured in molar.

[Q] Name the recorded pKd for NDPENRIAKKMLLEEAKANLSSDE (peptide, UniProt P46100 1265-1288, looked up, ATRX, human, DBM, residues 1265-1288, with I1280A; Limits as for m4; also called ATRX I1280A mutant; source: synthetic peptide (Tufts University Peptide Core Facility)) [human ATRX DBM peptide I1280A] .
[A] 4.89
